target: 3H-5-HT uptake into whole rat brain synaptosomes (serotonin reuptake) (Rattus norvegicus); construct: whole rat brain synaptosomes; assay: Inhibition of 3H-5-HT uptake into rat brain synaptosomes; conditions: in vitro
Sequence (P31652 whole entry): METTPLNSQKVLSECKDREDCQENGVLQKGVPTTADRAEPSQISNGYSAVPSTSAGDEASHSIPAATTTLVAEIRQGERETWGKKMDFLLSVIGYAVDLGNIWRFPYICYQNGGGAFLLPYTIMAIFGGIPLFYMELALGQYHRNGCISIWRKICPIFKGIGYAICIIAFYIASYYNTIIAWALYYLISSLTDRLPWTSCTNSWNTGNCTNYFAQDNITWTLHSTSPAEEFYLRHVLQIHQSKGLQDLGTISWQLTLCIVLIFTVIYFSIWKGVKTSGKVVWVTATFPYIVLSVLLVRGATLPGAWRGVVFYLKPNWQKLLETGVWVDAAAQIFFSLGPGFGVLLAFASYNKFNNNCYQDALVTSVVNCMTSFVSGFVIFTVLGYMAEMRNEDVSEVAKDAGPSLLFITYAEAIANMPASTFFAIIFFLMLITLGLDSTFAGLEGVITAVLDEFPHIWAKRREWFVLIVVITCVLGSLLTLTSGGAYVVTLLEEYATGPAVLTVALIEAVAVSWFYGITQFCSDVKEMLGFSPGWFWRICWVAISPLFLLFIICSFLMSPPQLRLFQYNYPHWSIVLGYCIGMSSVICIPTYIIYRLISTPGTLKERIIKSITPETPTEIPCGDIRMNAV
# IC50 values compiled below

Task item: Requested field: IC50. Item: Fc1ccc2[nH]cc(CCCN3CCN(c4ccccc4Oc4ccccc4)CC3)c2c1 [Compound 5f]
Reply: 4.8 nM

Task item: Requested field: IC50. Item: Fc1ccc2[nH]cc(CCCN3CCN(c4ccccc4Oc4cccc5c4OCCO5)CC3)c2c1 [Compound 5a]
Reply: 14 nM

Task item: Requested field: IC50. Item: COc1ccccc1Oc1ccccc1N1CCN(CCCc2c[nH]c3c(F)cc(F)cc23)CC1 [Compound 5x]
Reply: 33 nM

Task item: Requested field: IC50. Item: COc1ccccc1Oc1ccccc1N1CCN(CCCc2c[nH]c3ccc(F)cc23)CC1 [Compound 5l]
Reply: 4.7 nM
